- methodNotes: small-molecule microarray binders of probe aEGFR, primary screen, biochemical, biotinylated probe, 635/667 nm fluorescence (AID 1097);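 also: probe is a biotinylated anti-EGFR antibody binding compounds printed on slides; score combines fluorescence near 667 nm and signal to noise of each spot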
- runConditions: higher = more signal
measuredEndpoint: composite z-score
# output: bare number, no unit

Incoming: What value of measured composite z-score is listed for CCOC(=O)[C@H](CC(C)C)NC(=O)CCC1CC(OC(=O)NCCc2ccc(F)cc2)CC2(CCCC(COC(=O)NCc3ccccc3)O2)O1 (some centres undefined) ?
Outgoing: 0.0338

Incoming: # repeat for `CCN1C(=O)[C@H]2[C@H]3[C@H](O)[C@H](O)CC(=NOC[C@@H](C)[C@H](OCc4ccccc4)C(C)C)[C@@H]3CC[C@H]2C1=O`
Outgoing: -0.0936

Incoming: Same again, this time with CC(CCN1CCCCc2nc(C)c(C)cc21)=NOC(C)CN1CCCc2nc(C)c(C)cc21 (centres undefined)
Outgoing: 0.509

Incoming: And for `C=CC[C@]1(C(=O)NCc2ccccc2)N=C(c2ccc(OCCCO)cc2)O[C@H]1c1ccccc1` ?
Outgoing: -0.137

Incoming: How about this molecule: O=C1NC(=O)C2C1C=CC(C(O)Cc1ccccc1)N2Nc1ccccn1 (centres undefined)
Outgoing: 0.0026

Incoming: How about `[N-]=[N+]=NCc1ccccc1[C@@H]1OC(c2ccc(OCCCO)cc2)=N[C@]1(Cc1ccccc1)C(=O)N1CCOCC1` ?
Outgoing: 0.256

Incoming: `O=C1[C@H]2[C@H]3[C@H](O)[C@H](O)CC(=NOCc4ccccc4)[C@@H]3CC[C@H]2C(=O)N1C1CCCCC1` ?
Outgoing: -0.13

Incoming: Similarly, `COC(=O)[C@@H]1CC[C@H](C)[C@@H](c2ccc(C)cc2)N1C(=O)c1ccc(C=NOC[C@@H](O)COCc2ccco2)cc1` ?
Outgoing: -0.0868

Incoming: // query: `COCC1=C2[C@@H](CCc3ccccc3)OB(O)C[C@@H]2n2c(=O)n(-c3ccccc3)c(=O)n2C1`
Outgoing: -0.145

Incoming: Could you do the same for `CCOC(=O)C[C@H]1[C@H](OC(=O)c2ccc(C(=O)c3ccccc3)cc2)[C@@H](NC(=O)c2ccc(-c3ccccc3)cc2)c2cc(OCCCO)ccc2N1C(=O)c1ccc2ccccc2n1` , please?
Outgoing: -0.109

Incoming: Note, next up: `[N-]=[N+]=NCc1ccccc1C[C@]1(C(=O)NCc2ccccc2)N=C(c2ccc(OCCCO)cc2)O[C@H]1c1ccccc1N=[N+]=[N-]`
Outgoing: 0.464

Incoming: Now give it for `O=C1[C@H]2[C@H]3[C@H](O)[C@H](O)CC(=NOCc4ccccc4)[C@H]3CC[C@H]2C(=O)N1c1cccc(Oc2ccccc2)c1` too.
Outgoing: 0.0801

Incoming: What do you have for `CC(C)NC(=O)[C@@]1(c2ccc([N+](=O)[O-])cc2)CC(=O)N(CC23CC4CC(CC(C4)C2)C3)[C@@H]1c1ccc(CO)cc1I` ?
Outgoing: 0.0743

Incoming: Same question, `CCCCc1nc2c(c3c1C[C@H](C)OC3)CN(CCC(C)C)CC2` this time
Outgoing: -0.0627

Incoming: Consider next the molecule `O=C(NN=C1C[C@@H](O)[C@@H](O)[C@@H]2[C@@H]3C(=O)N(c4cccc(Oc5ccccc5)c4)C(=O)[C@@H]3CC[C@H]12)OCc1ccccc1` in the same way.
Outgoing: -0.152

Incoming: What do you have for `O=C1C[C@@H](O)[C@@H](O)[C@@H]2[C@@H]3C(=O)N(c4cccc(Oc5ccccc5)c4)C(=O)[C@@H]3CC[C@@H]12` ?
Outgoing: 0.126

Incoming: Same question, `COc1ccc([Si](C)(C)[C@@H]2[C@@H](CC(=O)N3CCC[C@H]3CO)O[C@]3(C(=O)N(Cc4cccc(N5CCC5=O)c4)c4ccccc43)[C@H]2C)cc1` this time
Outgoing: -0.0953

Incoming: How about this molecule: `CC(C)CON=C1C[C@@H](O)[C@@H](O)[C@@H]2[C@@H]3C(=O)N(C[C@@H]4CCCO4)C(=O)[C@@H]3CC[C@H]12`
Outgoing: -0.0191

Incoming: Next: `CO[C@H]1O[C@H](CO)[C@@H](OC(=O)Nc2ccc3c(c2)OCO3)[C@H](OC(=O)Nc2ccccc2-c2ccccc2)[C@@H]1OC(=O)Nc1ccccc1-c1ccccc1`
Outgoing: -0.0179

Incoming: Quick one: `CCOC(=O)CCN1C(=O)[C@H]2[C@H]3[C@H](O)[C@H](O)CC(=NOC[C@@H](O)COCc4ccco4)[C@H]3CC[C@H]2C1=O`
Outgoing: 0.0649

Incoming: And what about the molecule `CO[C@@H]1COC(=O)CC=C[C@@H](C)COC(=O)[C@H](COCc2ccccc2)NC(=O)CC=C[C@H]1C` ?
Outgoing: -0.0899

Incoming: Try the molecule CS(=O)(=O)CCOC(=O)C1=CC(CCCO)=CC(c2cccs2)N(Cc2cccc(OC(F)(F)F)c2)C=C1C(=O)OCCS(C)(=O)=O (centres undefined)
Outgoing: 0.0269

Incoming: How about this molecule: `CC(C)=C1C(=O)C(c2ccccc2)=C2CN3C(=O)N(CCc4ccccc4)C(=O)[C@]3(Cc3ccc(F)cc3)[C@H]21`
Outgoing: 0.119

Incoming: Same for COC(=O)[C@@H]1CC[C@H](C)[C@@H](c2ccc(C)cc2)N1C(=O)c1ccc(C=NOC(C)CN2CCCCc3nc(C)c(C)cc32)cc1 (some centres undefined)
Outgoing: -0.0929

Incoming: Repeat with `COC(=O)[C@@H]1N=C(c2ccc(OCCCO)cc2)O[C@@H]1c1ccccc1N=[N+]=[N-]`
Outgoing: -0.027

Incoming: Proceed to `C[C@@H]1C=CCC(=O)OC[C@H](C)C(=O)OC[C@H]2O[C@H]1C=C[C@H]2O`
Outgoing: -0.0039

Incoming: Let us now turn to `CC(C)CON=C1C[C@@H](O)[C@@H](O)[C@@H]2[C@@H]3C(=O)N(Cc4ccccc4)C(=O)[C@@H]3CC[C@@H]12`
Outgoing: -0.0679

Incoming: Okay, and `COc1ccc(COC(=O)NN=C2C[C@@H](O)[C@@H](O)[C@@H]3[C@@H]4C(=O)N(Cc5ccc6c(c5)OCO6)C(=O)[C@@H]4CC[C@@H]23)cc1` ?
Outgoing: -0.187

Incoming: `C[C@@H]1CC[C@H]2C(=O)O[C@H](COc3ccc(C(C)(C)C)cc3)CN2[C@H]1c1ccc(Br)cc1` ?
Outgoing: -0.122
